Source: patent EP4772535A1

- tested.target: T1, ROR1 naturally expressed on human tumor cell lines (A549, Jeko-1, SW620, PA-1) (human, UniProt Q01973 30-937)
- T1 construct: whole, on cells; also called cells expressing ROR1
- T1 sequence (Q01973 30-937): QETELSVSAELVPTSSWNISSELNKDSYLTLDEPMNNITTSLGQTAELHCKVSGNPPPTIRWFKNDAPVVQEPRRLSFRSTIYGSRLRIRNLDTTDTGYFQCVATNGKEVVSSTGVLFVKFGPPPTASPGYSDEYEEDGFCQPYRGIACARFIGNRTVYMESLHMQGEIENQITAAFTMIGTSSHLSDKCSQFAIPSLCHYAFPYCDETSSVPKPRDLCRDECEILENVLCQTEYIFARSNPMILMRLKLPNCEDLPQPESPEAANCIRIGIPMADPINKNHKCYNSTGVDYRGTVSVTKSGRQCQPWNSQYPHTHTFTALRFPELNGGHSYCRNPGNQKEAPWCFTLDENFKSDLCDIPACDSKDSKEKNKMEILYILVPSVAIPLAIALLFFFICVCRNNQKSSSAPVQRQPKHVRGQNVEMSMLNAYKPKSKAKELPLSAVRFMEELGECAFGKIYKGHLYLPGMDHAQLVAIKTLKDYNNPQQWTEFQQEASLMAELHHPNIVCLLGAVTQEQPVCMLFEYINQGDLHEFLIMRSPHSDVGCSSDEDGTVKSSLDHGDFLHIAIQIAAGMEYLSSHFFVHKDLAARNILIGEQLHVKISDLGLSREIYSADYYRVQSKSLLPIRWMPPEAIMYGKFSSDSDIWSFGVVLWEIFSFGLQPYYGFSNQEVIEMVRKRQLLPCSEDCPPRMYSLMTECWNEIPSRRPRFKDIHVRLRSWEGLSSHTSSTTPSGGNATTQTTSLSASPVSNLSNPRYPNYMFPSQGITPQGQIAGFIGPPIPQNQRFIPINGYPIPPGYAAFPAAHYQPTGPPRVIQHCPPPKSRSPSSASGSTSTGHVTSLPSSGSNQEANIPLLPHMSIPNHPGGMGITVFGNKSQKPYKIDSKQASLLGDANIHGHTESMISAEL
- test.name: FACS on SW620 cells naturally expressing ROR1
assay.metric: pEC50
For clarity, pEC50 is expressed as the negative log10 of concentration in mol/L.

Sample ch135A2B10 (antibody, human IgG1, kappa, V domains shown, also called chimeric antibody of m135A2B10) VH: DVKLVESGGGLVTPEGSLKLSCAASGFAFSTYGMAWVRQTPEKRLEWVASIHKGGFSTYYPDNVKGRFTISRDNDKNTLYLQMSSLKSEDTAMYYCIRHDWDGAMDYWGQGTSVTVSS VL: DIVLTQSPSSMYASLGERVTITCKASQDINSYLNWFQQKPGKSPKTLIYRANRLVDGVPSRFSGSGSGQDYSLTISSLEYEDLGIYYCLQFDEFPYTFGGGTKLEIKR ; pEC50 observed: 10.22

Lab book: pEC50 of ch29H5D8 (antibody, human IgG1, kappa, V domains shown, also called chimeric antibody of m29H5D8) VH: EVQLQQSGAELARPGASVKLSCKASGYTFTNYGISWVKQRTGQGLEWIGEIYPRSVNTYYSAKFKGKATLTADKSSSTAYMELRSLTSEDSAVYFCARHYYGSSLDYWGQGTTLTVSS VL: DIVLTQSPASLSVATGEKVTIRCITSSDIEDDMNWYQQKPGEPPKLLISEGNSLRPGVPSRFSSSGYGTDFVFTIENTLSEDVADYYCLQSDNIFTFGSGTKLEIKR noted as 11.00

For record ch3G9B1 (antibody, human IgG1, kappa, V domains shown, also called chimeric antibody of m3G9B1) VH: QVQLQQSGTELARPGASVKLSCKASGYTFTSYGITWVKQRTGQGLEWIGEIYPRSGNTYFNEKFKGKATLTADKSSSTAYMELRSLTSEDSAVYFCARDRTGTGVDDYWGQGTTLTVSS VL: DIVLTQSPASLSMAIGEKVTIRCITNTDIDDDMSWYQQKPGEPPNLLISEGNTLRPGVPSRFSSSGYGRDFVFTIENMLSEDVADYYCLQSNNLPYTFGGGTKLEIKR the listed pEC50 is 10.32

The binder listed as ch137G11D10 (antibody, human IgG1, kappa, V domains shown, also called chimeric antibody of m137G11D10) VH: DVQLQESGPGLVKPSQSLSLTCTVTGYSITSDYAWNWIRQFPGNKLEWMGYITYSASTSYNPSLKSRISITRDTSKNQFFLQLNSVTTEDTATYYCARGAGTYYFDYWGQGSTLTVSS VL: DIVLTQSPASLSVATGEKVTIRCITSTDIDEDMNWYQQKPGEPPKLLISEDNSLRPGVPSRFSSSGYGTDFVLTIENTLSEDVADYYCLQTNNLPLTFGAGTKLEIKR has a reported pEC50 of 11.00

Please fill in: pEC50 reported for UC-961 (antibody, V domains shown) VH: QVQLQESGPGLVKPSQTLSLTCTVSGYAFTAYNIHWVRQAPGQGLEWMGSFDPYDGGSSYNQKFKDRLTISKDTSKNQVVLTMTNMDPVDTATYYCARGWYYFDYWGHGTLVTVSS VL: DIVMTQTPLSLPVTPGEPASISCRASKSISKYLAWYQQKPGQAPRLLIYSGSTLQSGIPPRFSGSGYGTDFTLTINNIESEDAAYYFCQQHDESPYTFGEGTKVEIK = 10.62
